Experiment: ATG_Sox_CIS: Attagene CIS-FACTORIAL HepG2 Assay for human SRY-box transcription factor (SOX) (AID 2282960)
Conditions: HepG2 Attagene cis-factorial SOX reporter, mRNA; actives raise or lower the signal
Activity calls are given as the source filed them. How the source made its calls: active means hit-call score of the fitted dose curve at least 0.9, where 1 is the maximum; inactive means score below 0.9.
Possible outcomes: active, inactive

- compound: "O=C1c2ccccc2C(=O)C1c1nc2ccccc2c(Br)c1O"
  class.name: "inactive"
- compound: "OCCc1ccncc1"
  class.name: "inactive"
- compound: "COC=O"
  class.name: "inactive"
- compound: "CC(C)c1ccc2c(C(C)C)cc(C(C)C)c(S(=O)(=O)O)c2c1"
  class.name: "inactive"
- compound: "OC1CCCC1"
  class.name: "inactive"
- compound: "C=CC(=O)OCCOC1C2CCC1C1CC=CC12 (stereo not drawn)"
  class.name: "inactive"
- compound: "O=C1C=CC(=O)O1"
  class.name: "inactive"
- compound: "CC(C)(C)c1n[nH]c(=O)n(N)c1=O"
  class.name: "inactive"
- compound: "CC/C=C\\CCOC(=O)CCCCC"
  class.name: "inactive"
- compound: "Clc1nc2ccccc2s1"
  class.name: "inactive"
- compound: "N#CCc1ccc(Cl)cc1Cl"
  class.name: "inactive"
- compound: "O=C(Nc1ccccc1SSc1ccccc1NC(=O)c1ccccc1)c1ccccc1"
  class.name: "inactive"
- compound: "CCCCC(CC)COCC1CO1 (stereo not drawn)"
  class.name: "inactive"
- compound: "CCC(=O)Oc1ccc(/C(CC)=C(\\CC)c2ccc(OC(=O)CC)cc2)cc1"
  class.name: "active"
- compound: "CCOC(F)(F)C(F)(F)C(F)(F)C(F)(F)F"
  class.name: "inactive"
- compound: "C=C[Si](C)(C)O[Si](C)(C)C=C"
  class.name: "inactive"
- compound: "C/C=C\\C/C=C/CCCCCCCCOC(C)=O"
  class.name: "inactive"
- compound: "CC(=O)OCC(=O)[C@@]12N=C(C)O[C@@H]1C[C@H]1[C@@H]3CCC4=CC(=O)C=C[C@]4(C)[C@H]3[C@@H](O)C[C@@]12C"
  class.name: "inactive"
- compound: "S=C(NC1CCCCC1)NC1CCCCC1"
  class.name: "inactive"
- compound: "CNC(=S)NN"
  class.name: "inactive"
- compound: "CC1=NC(C)OC1C (stereo not drawn)"
  class.name: "inactive"
- compound: "O=C(c1ccccc1)c1ccc(O)c(O)c1O"
  class.name: "inactive"
- compound: "O=[N+]([O-])c1ccc(CO)cc1"
  class.name: "inactive"
- compound: "C=C1[C@H]2CC[C@@H]3[C@H]2C(C)(C)CCC[C@]13C"
  class.name: "inactive"
- compound: "CCCCCCCC/C=C\\CCCCCCCC(=O)OCCO"
  class.name: "inactive"
- compound: "CC=C1CC2C=CC1C2 (stereo not drawn)"
  class.name: "inactive"
- compound: "O=C1c2cccc(O)c2C(=O)c2c(O)cc(CO)cc21"
  class.name: "inactive"
- compound: "O=C(O)Cc1c(Cl)ccc(Cl)c1Cl"
  class.name: "inactive"
- compound: "CN(C)c1ccc(C(=N)c2ccc(N(C)C)cc2)cc1"
  class.name: "inactive"
- compound: "O=S(=O)(O)c1ccccc1C=Cc1ccc(-c2ccc(C=Cc3ccccc3S(=O)(=O)O)cc2)cc1"
  class.name: "inactive"
- compound: "COCCOCCOCCOCCOC"
  class.name: "inactive"
- compound: "CCCC(=O)OCc1ccccc1"
  class.name: "inactive"
- compound: "N=c1ccn2c(n1)O[C@H]1[C@H](O)[C@@H](CO)O[C@H]12"
  class.name: "inactive"
- compound: "O=CN1CCCCC1"
  class.name: "inactive"
- compound: "CCCCCc1ccc(Cl)cc1"
  class.name: "inactive"
- compound: "CCCCCCCC[N+](C)(CCCCCCCC)CCCCCCCC"
  class.name: "inactive"
- compound: "NCCCN1CCN(CCCN)CC1"
  class.name: "inactive"
- compound: "CC(C)=CCC/C(C)=C\\C#N"
  class.name: "inactive"
- compound: "CCCCC(CC)COC(=O)c1ccccc1 (stereo not drawn)"
  class.name: "inactive"
- compound: "CCc1ccc2c(c1)C(=O)c1ccccc1C2=O"
  class.name: "inactive"
- compound: "c1ccc(-c2ccccn2)nc1"
  class.name: "inactive"
- compound: "CCCCCCCCCCCCCOP(=O)(O)O"
  class.name: "inactive"
- compound: "CCCOC(=O)CCCCC(=O)OCCC"
  class.name: "inactive"
- compound: "CCOCC(=O)O"
  class.name: "inactive"
- compound: "COc1ccc(C(Cl)=C(c2ccc(OC)cc2)c2ccc(OC)cc2)cc1"
  class.name: "inactive"
- compound: "C=C1C2CCC(C2)C1(C)C (stereo not drawn)"
  class.name: "inactive"
- compound: "CCOC(=O)N1CCC(=C2c3ccc(Cl)cc3CCc3cccnc32)CC1"
  class.name: "inactive"
- compound: "CCCCCCCCO[C@@H]1O[C@H](CO)[C@@H](O)[C@H](O)[C@H]1O"
  class.name: "inactive"
- compound: "Cc1ccc2oc(=O)ccc2c1"
  class.name: "inactive"
- compound: "O=C(O)c1ccccc1Nc1cccc(C(F)(F)F)c1"
  class.name: "inactive"
- compound: "O=C1C(N(CO)C(=O)NCO)N(CO)C(=O)N1CO (stereo not drawn)"
  class.name: "inactive"
- compound: "Nc1ccc(N)c(Cl)c1"
  class.name: "inactive"
- compound: "COC(=O)c1sccc1S(N)(=O)=O"
  class.name: "inactive"
- compound: "CCCCOCCOC(=O)COc1nc(Cl)c(Cl)cc1Cl"
  class.name: "inactive"
- compound: "C=CC(=O)OCCC(=O)O"
  class.name: "inactive"
- compound: "CCCOCCOCCOCCO"
  class.name: "inactive"
- compound: "Cc1cc(C)c(C)cc1C"
  class.name: "inactive"
- compound: "CC(C)(Oc1ccc(C2CC2(Cl)Cl)cc1)C(=O)O (stereo not drawn)"
  class.name: "inactive"

###

Experiment: CCTE_Shafer_MEA_dev_active_electrodes_number: CCTE's Neural Network Formation Assay for Number of Active Electrodes, Shafer Lab (AID 2284040)
Records with an inconclusive call do not appear. The source made the active and inactive calls. The calls were made as follows: active = hit-call score of the fitted dose curve at least 0.9, where 1 is the maximum; inconclusive = response in the unintended direction; inactive = score below 0.9.
Outcomes: true (active), false (inactive)

- chemical.structure: "COC(F)(F)C(F)(C(F)(F)F)C(F)(F)F"
  class.name: "false"
- chemical.structure: "CC=CC(F)(F)C(F)(F)C(F)(F)F"
  class.name: "false"
- chemical.structure: "CCOC(F)(F)C(F)(F)C(F)(F)C(F)(F)F"
  class.name: "false"
- chemical.structure: "c1ccc2c(c1)ccc1cc3c(ccc4ccccc43)cc12"
  class.name: "false"
- chemical.structure: "CN(C)c1ccc(C(=N)c2ccc(N(C)C)cc2)cc1"
  class.name: "true"

###

Read-out: CD40, CD40 (gene 958)
Experiment: BSK_LPS_CD40: BioMAP Diversity Plus: LPS Assay for CD40 Biomarker Activity (AID 2283076)
Details: primary human HUVEC with PBMC; actives raise or lower the signal
Activity calls are given as the source filed them. How the source made its calls: active means hit-call score of the fitted dose curve at least 0.9, where 1 is the maximum; inactive means score below 0.9.
Outcomes: active, inactive

- compound: "CC(C)C(=O)C(C)C"
  class.name: "inactive"
- compound: "CCO[Si](C)(OCC)OCC"
  class.name: "inactive"
- compound: "O=C1CCCN1CCO"
  class.name: "inactive"
- compound: "CCCCNc1ccc(NCCCC)c2c1C(=O)c1ccccc1C2=O"
  class.name: "inactive"
- compound: "COc1ccc2nc(N)sc2c1"
  class.name: "inactive"
- compound: "C=CC(=O)OCC(Br)CBr (stereo unspecified)"
  class.name: "active"
- compound: "CCOc1nc(F)cc2nc(S(=O)(=O)Nc3c(Cl)cccc3C(=O)OC)nn12"
  class.name: "inactive"
- compound: "O=C(Cl)c1cc(C(=O)Cl)cc(C(=O)Cl)c1"
  class.name: "active"
- compound: "c1ccc2c(c1)ccc1cc3c(ccc4ccccc43)cc12"
  class.name: "inactive"
- compound: "C=CCOCC(O)CCl (stereo unspecified)"
  class.name: "inactive"
- compound: "C#CC1(O)CC[C@H]2[C@@H]3CCC4=CCCC[C@@H]4[C@H]3CC[C@@]21C (stereo partly specified)"
  class.name: "active"
- compound: "CCCCC(CC)COCC1CO1 (stereo unspecified)"
  class.name: "inactive"
- compound: "c1ccc(-c2ccccn2)nc1"
  class.name: "inactive"
- compound: "CCCCC/C=C\\C/C=C\\CCCCCCCC(=O)OC"
  class.name: "active"
- compound: "O=Nc1ccc(O)cc1"
  class.name: "inactive"
- compound: "CC(C)(c1cc(Br)c(OCCO)c(Br)c1)c1cc(Br)c(OCCO)c(Br)c1"
  class.name: "active"
- compound: "CCCCC(CC)COC(=O)c1ccccc1O (stereo unspecified)"
  class.name: "active"
- compound: "C=CC=CC=CCCCCC"
  class.name: "inactive"
- compound: "CCCCCCCCc1ccc(Nc2ccc(CCCCCCCC)cc2)cc1"
  class.name: "inactive"
- compound: "CCO[Si](CCCN=C=O)(OCC)OCC"
  class.name: "inactive"
- compound: "O=C(Nc1ccccc1SSc1ccccc1NC(=O)c1ccccc1)c1ccccc1"
  class.name: "active"

Values were extracted from PubChem BioAssay (EPA / NIEHS).
